# tested.target: Arginase-1 (Homo sapiens)
# Sequence (P05089 whole entry): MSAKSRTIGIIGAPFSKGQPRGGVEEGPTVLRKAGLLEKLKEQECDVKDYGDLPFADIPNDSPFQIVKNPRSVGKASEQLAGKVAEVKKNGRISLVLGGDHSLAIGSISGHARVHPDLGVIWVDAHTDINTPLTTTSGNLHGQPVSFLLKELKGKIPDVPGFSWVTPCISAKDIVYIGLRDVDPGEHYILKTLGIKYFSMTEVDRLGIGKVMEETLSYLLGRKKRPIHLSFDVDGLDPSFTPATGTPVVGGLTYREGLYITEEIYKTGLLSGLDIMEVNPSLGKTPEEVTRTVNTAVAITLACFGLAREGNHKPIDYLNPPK
# assay.notes: Inhibition of human recombinant arginase 1 expressed in Escherichia coli BL21 (DE3) assessed as reduction in urea production using L-arginine as substrate in presence of MnSO4 incubated for 60 mins by o-phthaldialdehyde/N-(1-naphthyl)ethylene-diamine dihydrochloride reagent based colorimetric assay
# protocol.conditions: read-out: IC50
pIC50: −log10 of the molar value.
assay.endpoint: pIC50

Consider the following illustrative entries.
Write down the reported pIC50 of N[C@@]1(C(=O)O)CN(C[C@@H]2COCCN2)C[C@@H]1CCCB(O)O , test system: Arginase-1 (Homo sapiens). 8.00

Record CC(C)CN1C[C@H](CCCB(O)O)[C@](N)(C(=O)O)C1 : what is its pIC50 with Arginase-1 (Homo sapiens)? 6.41

Find pIC50 (Arginase-1 (Homo sapiens)) for the entry N[C@@]1(C(=O)O)CN(Cc2cccc(F)n2)C[C@@H]1CCCB(O)O 6.17

A: N[C@H](Cc1ccccc1)CN1C[C@H](CCCB(O)O)[C@](N)(C(=O)O)C1
B: N[C@@]1(C(=O)O)CN(C[C@H]2CCCCN2)C[C@@H]1CCCB(O)O
Between the entries labelled A and B , which has a larger pIC50 value on record? Use the label to indicate which entry you chose. B
(B: 8.59, A: 8.00)
